Data credit: patent US20230235054A1

Reported values of Kd for individual entries
Molecular target: T1, cynoNectin4-mFc (cyno, UniProt A0A2K5WES1 32-349)
T1 construct: Immobilized on the SPR chip; also called cyanoNectin4; not shown: mFc (mouse Fc)
T1 sequence: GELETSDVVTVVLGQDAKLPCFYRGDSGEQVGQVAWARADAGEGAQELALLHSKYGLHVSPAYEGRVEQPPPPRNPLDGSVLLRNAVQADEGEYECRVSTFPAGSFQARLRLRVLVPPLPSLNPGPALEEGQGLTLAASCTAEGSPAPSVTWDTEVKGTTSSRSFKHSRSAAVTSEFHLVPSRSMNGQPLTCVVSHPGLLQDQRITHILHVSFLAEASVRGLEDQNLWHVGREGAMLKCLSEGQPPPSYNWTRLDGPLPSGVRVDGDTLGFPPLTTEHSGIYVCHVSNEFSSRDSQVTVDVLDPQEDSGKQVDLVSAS
Test: SPR, cynoNectin4-mFc immobilized, pH 6.5
Give the quantity in nM, number only.

Binder	Number
BAP-143-wildtype (antibody, V domains shown, 150 kDa used in SPR; also called BAP143-00-00; benchmark (BM)) VH: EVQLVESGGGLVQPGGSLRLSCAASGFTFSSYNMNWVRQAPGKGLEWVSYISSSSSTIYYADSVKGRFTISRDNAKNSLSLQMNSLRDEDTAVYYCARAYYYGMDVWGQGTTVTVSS VL: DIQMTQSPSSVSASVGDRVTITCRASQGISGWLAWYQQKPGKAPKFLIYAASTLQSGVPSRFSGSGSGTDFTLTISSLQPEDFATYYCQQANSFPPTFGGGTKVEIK	0.52

Now, please, on to the next binder.
Req: Could you tell me which Kd is on file for BAP-143-00-02 (antibody, V domains shown, Used as a conjugate with a linker payload (CAB ADC)) VH: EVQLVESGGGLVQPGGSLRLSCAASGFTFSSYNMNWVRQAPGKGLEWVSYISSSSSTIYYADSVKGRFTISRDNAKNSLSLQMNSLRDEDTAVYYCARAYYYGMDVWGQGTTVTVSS VL: DIQMTQSPSSVSASVGDRVTITCRASQGISGWLAWYQQKPGKAPKFLIYAASTLQSGVPSRFSGSGSGTDFTLTISSLQPEDFATYYCQQANSEPPTFGGGTKVEIK ?
Resp: 4.71
